SYSTEM TESTED: recombinant human PAI-1 (Homo sapiens)
PROCEDURE TEXT: Test Example 2: Human PAI-1 Inhibitory Activity (pH 7.4 HEPES buffer, 10 minutes incubation with two-chain tPA)
Assay type: biochemical
Parameters: purchased Molecular Innovations, Inc
COND: read-out: Inhibition Rate of PAI-1 Activity (%)
Procedure: 0.1 M HEPES, 0.1 M NaCl. 1 mM EDTA. 0.1 % Polyethylene glycol 8,000 (Hampton Research Corporation), 2 mM Dimethyldecylphoshine oxide [Apo-10] (Fluka Corporation)
Item-by-item account of inhibition at 3 µM

{"CHEMICAL SMILES": "CCC(CC)Oc1ccc(-c2ccc(/C=C/C(=O)O)c(Oc3ccc(C(C)(C)C)cc3)c2)cc1", "SYSTEM TESTED": "recombinant human PAI-1 (Homo sapiens)", "inhibition at 3 µM": "> 99%"}

Provide only the value of recorded inhibition at 3 µM for CC(C)(C)c1ccc(CN(C(=O)C(=O)O)c2ccc(N3CCN(c4ccc(OC(F)(F)F)cc4)CC3)cc2)cc1
> 99%

Provide inhibition at 3 µM value for the following compound: CCCCCOc1ccc(-c2ccc(OC(F)(F)F)cc2)cc1CN(CC(=O)O)c1ccc(C(C)(C)C)cc1
98%

Consider the compound Cc1cc(C)cc(-c2ccc(/C=C/C(=O)O)c(Oc3ccc(C(C)(C)C)cc3)c2)c1 . State its measured inhibition at 3 µM.
> 99%

====

SYSTEM TESTED: recombinant human PAI-1 (Homo sapiens, UniProt P05121)
Sequence (P05121 24-402): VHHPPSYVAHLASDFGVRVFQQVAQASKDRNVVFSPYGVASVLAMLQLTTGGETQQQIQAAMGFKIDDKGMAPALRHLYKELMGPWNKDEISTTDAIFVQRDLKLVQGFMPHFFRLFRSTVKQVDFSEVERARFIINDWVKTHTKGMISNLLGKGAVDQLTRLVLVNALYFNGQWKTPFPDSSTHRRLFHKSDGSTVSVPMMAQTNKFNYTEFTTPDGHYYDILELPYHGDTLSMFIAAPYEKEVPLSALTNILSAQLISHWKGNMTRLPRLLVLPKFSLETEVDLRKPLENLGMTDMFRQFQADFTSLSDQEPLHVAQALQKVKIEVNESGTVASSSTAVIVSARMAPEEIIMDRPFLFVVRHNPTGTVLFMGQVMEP
PROCEDURE TEXT: Test Example 2: Human PAI-1 Inhibitory Activity (pH 7.4 HEPES buffer, 10 minutes incubation with two-chain tPA)
Format: biochemical
Set-up: purchased Molecular Innovations, Inc
COND: read-out: Inhibition Rate of PAI-1 Activity (%)
EXPERIMENTAL ENDPOINT: inhibition at 3 µM (%)
Express the result in % but write the number alone.

Please report the measured inhibition at 3 µM for CCCCCOc1ccc(-c2ccc(C)cc2)cc1N(CCCCc1ccccc1)C(=O)C(=O)O [Compound 677]
96

In one line, give reported inhibition at 3 µM of the entry CC(C)(C)c1ccc(COc2ccc(-c3ccc(OC(F)(F)F)cc3)cc2C(=O)O)cc1 [Compound 421] .
81

Supply reported inhibition at 3 µM belonging to this compound: Cc1cc(C)cc(Oc2cc(-c3ccc(C(C)(C)C)cc3)ccc2/C=C/C(=O)O)c1 [Compound 494]
92

====

SYSTEM TESTED: recombinant human PAI-1 (Homo sapiens, UniProt P05121)
PROCEDURE TEXT: Test Example 2: Human PAI-1 Inhibitory Activity (pH 7.4 HEPES buffer, 10 minutes incubation with two-chain tPA)
Type: biochemical
Design: purchased Molecular Innovations, Inc
COND: read-out: Inhibition Rate of PAI-1 Activity (%)
Using inhibition at 0.1 µM as the sorting value, the categories are low (below 3%), medium (3% to below 10%), high (10% or more)

Solved cases (5 shown):
{"MOLECULE": "O=C(O)C(=O)N(CCCCc1ccccc1)c1cc(-c2ccc(OC(F)(F)F)cc2)ccc1OCCCCC(F)(F)F", "CLASS ASSIGNMENT": "high"}
{"MOLECULE": "CCCCCOc1ccc(-c2ccc(C(C)C)cc2)cc1N(CCCCc1ccccc1)C(=O)C(=O)O", "CLASS ASSIGNMENT": "high"}
{"MOLECULE": "O=C(O)CCc1ccc(-c2ccc(OC(F)(F)F)cc2)cc1OCCCSc1ccccc1", "CLASS ASSIGNMENT": "high"}
{"MOLECULE": "CCCCC(Oc1cc(Oc2ccc(OC(F)(F)F)cc2)ccc1Oc1ccc(C(C)(C)C)cc1)C(=O)O (stereo not shown)", "CLASS ASSIGNMENT": "high"}
{"MOLECULE": "CC(C)(C)c1ccc(Oc2cc(-c3ccc(C#N)cc3)ccc2OCC(=O)O)cc1", "CLASS ASSIGNMENT": "medium"}

Lab note: which band did CC(C)(C)c1ccc(Oc2cc(-c3ccc(Cl)cc3)ccc2OCC(=O)O)cc1 land in?
high

Where would O=C(O)CCc1ccc(-c2ccc(OC(F)(F)F)cc2)cc1Oc1ccc(C(F)(F)F)cc1 land among the classes by reported inhibition at 0.1 µM?
low

Returns: class label. Input: CC(C)(C)Oc1ccc(-c2ccc(OC(F)(F)F)cc2)cc1N(CCCCc1ccccc1)C(=O)C(=O)O
low

Determine which band this molecule sits in: CCCCCOc1cc(-c2cccc(OC(F)(F)F)c2)ccc1N(CCCCc1ccccc1)C(=O)C(=O)O
medium

Value source: patent EP2272817A1
